Please provide measured SPOT peptide array binding signal intensity for the entries that follow.
subject_of_test: CaBzz1-D2
test_summary: SPOT peptide array binding signal intensity (averaged, normalized) (arbitrary units (background-subtracted, floor 0; scale differs between SH3 domains)); higher = stronger binding of the SH3 domain to the peptide

Worked cases, answers included:
binder: KRKRRLPVSEDTNTK
result: 69.8
--
binder: NRARYLPQNPDIIAG
result: 26.5

Field: SPOT peptide array binding signal intensity. Fill in for each record below.
1. QDKEGIPPDQQRLIF
2. KWVRRPKLMTPLTFS

Output:
1: ≤ 0; 2: 121

Field: SPOT peptide array binding signal intensity. Fill in for each record below.
1. DDEDVPPQLPTRTKS
2. RKRRTHLRLPLIRSN
3. LLGRKRPVMERVVDI
4. NNNKMRPHLPPLSSG
5. APKREAPKPPANTSP
6. AHFQPQRTAPKPPIS

Output:
1: ≤ 0; 2: 71; 3: 63.5; 4: 49.8; 5: 2090; 6: 136

Field: SPOT peptide array binding signal intensity. Fill in for each record below.
1. TPTSGPPLLPPRNTM
2. PKMLPIPSKPTLFDL

Output:
1: 33.5; 2: 146

Field: SPOT peptide array binding signal intensity. Fill in for each record below.
1. VNIPSPSSSPPPIPK
2. PIVPSSPAPPLPLSG

Output:
4.75
11.2

Task: Quick one: SPOT peptide array binding signal intensity for NMLKKKPLKKPLKRF ?
Output: 225
